Each recorded value in this set is attributed to the antibiotic and cytotoxicity screens of Wong et al. (2023).

Test system: HSkMC (human skeletal muscle cells)
test method notes: cytotoxicity call (relative viability < 0.9)
test parameters: 10 µM
The campaign covered roughly 39,000 compounds. About 1,500 (3.8%) were called active. The sample as a whole holds a higher share of actives than the screen did.
Field 'call' accepts Yes = active, No = inactive

Worked examples follow.
>>> df
                                   molecule  classification
0  C[C@H](CO)N1C[C@H](C)[C@@H](CN(C)S(=O)(=O)c2ccccc2)Oc2ncc(C#Cc3ccccc3F)cc2C1=O              No
1  CCOC(=O)c1c(CN2CCN(c3ccccc3C)CC2)n(-c2ccccc2)c2cc(Br)c(O)cc12             Yes
2  C[C@H]1CN([C@@H](C)CO)C(=O)Cc2cc(NC(=O)C3CCCCC3)ccc2O[C@@H]1CN(C)Cc1ccc(Oc2ccccc2)cc1              No
3  Cn1cc(N2C[C@]3(COCCN(C(=O)C4CC4)C3)OCC2=O)cn1              No
4  CCOC(=O)c1c(CN2CCN(CCOCCO)CC2)n(-c2ccccc2)c2cc(Br)c(O)cc12              No
5                    O=C(O)CSCC(=O)N1CCCCC1              No

Next up:
// outcome(item) with item = C[C@H](CO)N1C[C@H](C)[C@@H](CN(C)Cc2ccc(Oc3ccccc3)cc2)Oc2ccc(NC(=O)C3CCCCC3)cc2CC1=O
No
